# study_target: T1, CD27 expressed on the cell surface (HT1080_CD27 cells) (human, UniProt P26842 20-260)
# T1 construct: whole, on cells; also called K562_CD27
# T1 sequence (looked up): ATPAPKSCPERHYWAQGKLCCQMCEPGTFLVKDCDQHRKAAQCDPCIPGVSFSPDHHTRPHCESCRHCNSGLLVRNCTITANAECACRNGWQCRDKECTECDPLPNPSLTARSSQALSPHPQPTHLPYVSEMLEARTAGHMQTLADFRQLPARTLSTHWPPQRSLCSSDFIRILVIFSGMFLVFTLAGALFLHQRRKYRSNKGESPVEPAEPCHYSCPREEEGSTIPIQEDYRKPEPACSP
# protocol: cellular binding assay, HT1080_CD27 cells; also: test concentration or dose not given here
# Cellular binding assay [RFU] annotations
measure_name: Cellular binding assay [RFU] (RFU)

1. P018.S.06.A.E04 (antibody, V domains shown, V regions on human Ig constant parts; also called AB27_106) VH: QEQLEESGGDLVQPEGSLTLTCTVSGFSFDSNYWICWVRQAPGKGPEWIACIMTGDGSIYYATWAKGRFTISKTSSTTVTLQMTSLTAADTATYFCARGYDGIHGGDNYGHVFNLWGPGTLVTVSS VL: AFELTQTPFSVSAVVGGTVTINCQASENIYTLLAWYQQKSGQPPKLLIYRASTLTSGVPSRFKGSGSGTQFTLTISDLESADAATYYCQGYYVDSGNTFGGGTEVVVK : 281
2. P018.S.08.A.A01 (antibody, V domains shown, V regions on human Ig constant parts; also called AB27_135) VH: QSVEESGGRLVTPGTPLTLTCTVSGFSLNNYDMNWVRQAPGKGLEWVGYIDTGGSAYYANWVNGRFTISKTSTTVELKMTSLTASDTATYFCARGYIHGYLWGQGTLVTVSS VL: ALVMTQTPSSVSAAVGGTVTINCQASQNVYNNLAWYQQRPGQPPELLIDSASTLASGVSSRFKGSGSGTEFTLTISDLESADAATYYCQSADWESSNFFWAFGGGTEVVVK : 448
3. P018.S.04.A.B03 (antibody, V domains shown, V regions on human Ig constant parts; also called AB27_67) VH: QSLEESGGRLVTPGTPLTLTCTASGFSLSSYDMSWVRQAPGKGLEWIGYIWSDGDTDYANWAIGRFTISKTSTTVDLKMTSPTTEDTATYFCARGYTNYDLWGQGTLVTVSS VL: AAVLTQTPSSVSAAVGGTVTISCQSSQSLYSDPYLSWHQQKPGQPPKRLIYQASTLASGVSSRFKGSGSGTEYTLTISDVQSDDAATYFCQGTYYSDGWYSDFGGGTEVVVK : 338
